# Test protocol: Solubility of representative compounds (Table 1)
# Assay type: physicochemical
# Assay context: solvents listed

{"columns": ["Compound", "Solubility"],
 "data": [
  ["O=C(N[C@H](CO)[C@H](O)c1ccccc1)[C@H]1C[C@@H](CCc2ccccc2)CCN1", "EtOH, DMSO"],
  ["O=C(N[C@@H](CO)[C@@H](O)c1ccccc1)C1C[C@@H](c2ccccc2)CCN1 (stereo in doubt)", "EtOH, DMSO"],
  ["CS[C@H]1OC([C@@H](NC(=O)C2CNCCN2c2ccccc2)[C@H](C)Cl)[C@H](O)[C@H](O)[C@H]1O (some centres unmarked)", "EtOH, DMSO"],
  ["c1ccc(N2CCN(CC3CNCCN3c3ccccc3)CC2)cc1 (centres unmarked)", "EtOH, DMSO"],
  ["CS[C@H]1O[C@H]([C@H](NC(=O)C2CC(CCc3ccccc3)CCN2)[C@@H](C)O)[C@H](O)[C@H](O)[C@H]1O (some centres unmarked)", "EtOH, DMSO"],
  ["CCCCCCCCCCC[C@@H]1CCN[C@H](C(=O)N[C@H](CO)[C@H](O)c2ccccc2)C1", "EtOH, DMSO"],
  ["CCCCCCCCCCC[C@@H]1CCN[C@H](C(=O)N[C@@H](CO)[C@@H](O)c2ccccc2)C1", "EtOH, DMSO"]
]}

###

# Tested target: 5-HT2CR (Homo sapiens)
# Sequence (P28335 33-458): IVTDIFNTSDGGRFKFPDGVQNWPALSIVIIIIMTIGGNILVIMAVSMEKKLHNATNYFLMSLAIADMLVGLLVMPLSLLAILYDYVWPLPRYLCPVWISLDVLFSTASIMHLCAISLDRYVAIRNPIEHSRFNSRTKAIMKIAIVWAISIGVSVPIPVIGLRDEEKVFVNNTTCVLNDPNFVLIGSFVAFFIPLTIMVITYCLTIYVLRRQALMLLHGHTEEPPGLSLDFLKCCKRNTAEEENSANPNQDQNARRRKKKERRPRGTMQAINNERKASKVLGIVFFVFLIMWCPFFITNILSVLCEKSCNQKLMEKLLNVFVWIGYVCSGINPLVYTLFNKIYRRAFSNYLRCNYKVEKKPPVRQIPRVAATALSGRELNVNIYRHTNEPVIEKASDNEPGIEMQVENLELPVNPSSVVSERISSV
# Test protocol: 5-HT induced intracellular calcium (Cai++) release assay in live 5-HT2CR-CHO cells
# Assay context: 5-HT-induced Cai++ release, 5-HT2CR-CHO cells
# Procedure: Selected results for the biological characterization of the synthesized compounds can be found in Ding et al., ACS Chem. Neurosci., 3, 538-545, 2012, and also described herein. The biological activity is assessed using an intracellular calcium (Cai^++) release assay. […] Changes in Cai^++ levels were determined using the calcium sensitive dye Calcium 4 (FLIPR No-wash kit, Molecular Devices, Sunnyvale, Calif., part #R8142). […]

{"columns": ["Compound", "EC50 (nM)"],
 "data": [
  ["CS[C@H]1OC([C@@H](NC(=O)C2CNCCN2c2ccccc2)[C@H](C)Cl)[C@H](O)[C@H](O)[C@H]1O (stereo partly shown)", 8]
]}
